- System: Pseudomonas aeruginosa
- EXPERIMENTAL PROTOCOL: Antibacterial activity against Pseudomonas aeruginosa after 24 hr by disk diffusion test
- Assay type: functional
Listing: inhibition zone (IZ) of selected compounds
Please give a number only; it is taken to be in mm.

> print(dat)
                                 smiles.str  test.value
1  Cc1cc(=O)oc2cc(Oc3nc(Nc4ccccc4)nc(N4CCCCC4)n3)ccc12          21
2  CCN1CCN(c2nc(Nc3ccccc3)nc(Oc3ccc4c(C)cc(=O)oc4c3)n2)CC1          21

Form field: reported inhibition zone (IZ) of `CN1CCN(c2nc(Nc3ccccc3)nc(Oc3cc(=O)oc4ccccc34)n2)CC1`
17

For the compound `Cc1cc(=O)oc2cc(Oc3nc(Nc4ccccc4)nc(N4CCN(C(C)C)CC4)n3)ccc12` , what inhibition zone (IZ) is on record?
18

Could you tell me which inhibition zone (IZ) is on file for `Cc1cc(=O)oc2cc(Oc3nc(Nc4ccccc4)nc(N4CCOCC4)n3)ccc12` ?
17

Look at this compound and give its reported inhibition zone (IZ). `O=c1cc(Oc2nc(Nc3ccccc3)nc(N3CCN(c4ncccn4)CC3)n2)c2ccccc2o1`
20

Entry `CCN1CCN(c2nc(Nc3ccccc3)nc(Oc3cc(=O)oc4ccccc34)n2)CC1` has what inhibition zone (IZ)?
18

Recorded inhibition zone (IZ) for `Cc1cc(=O)oc2cc(Oc3nc(Nc4ccccc4)nc(N4CCN(c5cccc(Cl)c5)CC4)n3)ccc12` , please?
24

---

- Test system: Pseudomonas aeruginosa
- EXPERIMENTAL PROTOCOL: Antibacterial activity against Pseudomonas aeruginosa after 24 hr by disk diffusion test
- Assay type: functional
inhibition zone (IZ) vs 20 mm: at or above is 1 (yes), below is 0 (no).

Answered examples (6):
> print(dat)
                                 smiles.str  assigned.category
1  Cc1cc(=O)oc2cc(Oc3nc(Nc4ccccc4)nc(N4CCN(c5ccccc5)CC4)n3)ccc12             0 (no)
2  O=c1cc(Oc2nc(Nc3ccccc3)nc(N3CCN(c4ccccc4)CC3)n2)c2ccccc2o1             0 (no)
3  CC(=O)N1CCN(c2nc(Nc3ccccc3)nc(Oc3ccc4c(C)cc(=O)oc4c3)n2)CC1            1 (yes)
4  O=c1cc(Oc2nc(Nc3ccccc3)nc(N3CCN(c4cccc(Cl)c4)CC3)n2)c2ccccc2o1            1 (yes)
5  CC(C)N1CCN(c2nc(Nc3ccccc3)nc(Oc3cc(=O)oc4ccccc34)n2)CC1             0 (no)
6  Cc1cc(=O)oc2cc(Oc3nc(Nc4ccccc4)nc(N4CCN(c5ccccn5)CC4)n3)ccc12            1 (yes)

Now look at this one.
Kindly determine if inhibition zone (IZ) recorded for `Cc1cc(=O)oc2cc(Oc3nc(Nc4ccccc4)nc(N4CCN(c5cccc(Cl)c5Cl)CC4)n3)ccc12` is above or exactly 20 mm.
1 (yes)

---

Listed here are compounds together with their documented MIC.
- Tested on: Bacillus subtilis
- EXPERIMENTAL PROTOCOL: Antibacterial activity against Bacillus subtilis after 24 hr by agar plate method
- Format: functional
Numbers only; they are read as µg/mL.

Solved cases (3 shown):
> print(dat)
                                 smiles.str  property.label  test.value
1  O=c1cc(Oc2nc(Nc3ccccc3)nc(N3CCN(c4ccccc4)CC3)n2)c2ccccc2o1             MIC         100
2  Cc1cc(=O)oc2cc(Oc3nc(Nc4ccccc4)nc(N4CCN(c5cccc(Cl)c5)CC4)n3)ccc12             MIC          50
3  O=c1cc(Oc2nc(Nc3ccccc3)nc(N3CCOCC3)n2)c2ccccc2o1             MIC         100

// next entry
Given `Cc1cc(=O)oc2cc(Oc3nc(Nc4ccccc4)nc(N4CCN(c5ncccn5)CC4)n3)ccc12` , state its recorded MIC.
12.5
